- TESTED SYSTEM: human GLP-1 receptor (human, UniProt P43220 24-463)
- ASSAY NOTES: cell-based or functional assay
Numbered stars: 1 amine (or outer) side, 2 acyl side, 3 side chain; on linkers, the order of the positions; unused ones are H or OH. Square brackets hold non-standard residues; d marks the D form. Side chains are listed from the residue outwards. Ends that are not written are not given here. * marks the point of attachment. γGlu = O=C(O)[C@H](CCC(=O)[*:2])N[*:1]; Palmitoyl = CCCCCCCCCCCCCCCC(=O)*; Aib = CC(C)(N)C(=O)O
So I've got a bunch of binders here, and I need their EC50 hGLP-1R values.
Respond with the bare value in pM.

For the binder shown here, HXQGTFTSDLSKQKDEEAARLFIEWLXAGGPSSGAPPPS (D-Ser at 2; Lys 14 side chain K(γE-x53) = (S)-4-Carboxy-4-hexadecanoylamino-butyryl-; Aib at 27; C-terminal amide) [SEQ ID NO: 14] , give the reported EC50 hGLP-1R.
2.1

Which EC50 hGLP-1R value is on record for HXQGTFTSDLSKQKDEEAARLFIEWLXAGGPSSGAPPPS (D-Ser at 2; Lys 14 side chain K(γE-x70) = (S)-4-Carboxy-4-octadecanoylamino-butyryl-; Aib at 27; C-terminal amide) [SEQ ID NO: 13] ?
2.7

State the recorded EC50 hGLP-1R for this entry: HXQGTFTSDLSKQKDEEAARLFIEWLXSGGPSSGAPPPS (D-Ser at 2; Lys 14 side chain K(γE-γE-x53) = (S)-4-Carboxy-4-((S)-4-carboxy-4-hexadecanoylamino-butyrylamino)-butyryl-; Aib at 27; C-terminal amide) [SEQ ID NO: 15]
1.8

Request the reported EC50 hGLP-1R associated with HXQGTFTSDLSKQKDEEAARLFIEWLXKGGPSSGAPPPS (D-Ser at 2; Lys 14 side chain K(γE-γE-x53) = (S)-4-Carboxy-4-((S)-4-carboxy-4-hexadecanoylamino-butyrylamino)-butyryl-; Aib at 27; C-terminal amide) [SEQ ID NO: 19]
2

Please report the recorded EC50 hGLP-1R for HXQGTFTSDLSKQKDEEAARLFIEWLXSTGPSSGAPPPS (D-Ser at 2; Lys 14 side chain K(γE-γE-x53) = (S)-4-Carboxy-4-((S)-4-carboxy-4-hexadecanoylamino-butyrylamino)-butyryl-; Aib at 27; C-terminal amide) [SEQ ID NO: 18] .
3.6

Which EC50 hGLP-1R reading was recorded for the binder HXQGTFTSDLSKQKDEEAARLFIEWLXKXGPSSGAPPPS (D-Ser at 2; Lys 14 side chain K(γE-x70) = (S)-4-Carboxy-4-octadecanoylamino-butyryl-; Aib at 27; D-Ala at 29; C-terminal amide) [SEQ ID NO: 25] ?
2.1

What measured EC50 hGLP-1R goes with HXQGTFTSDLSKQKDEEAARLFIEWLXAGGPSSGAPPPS (D-Ser at 2; Lys 14 side chain K(AEEAc-AEEAc- E-x53) = (2-{2-[2-(2-{2-[(4S)-4-Carboxy-4-hexadecanoylamino-butyrylamino]-ethoxy}-ethoxy)-acetylamino]-ethoxy}-ethoxy)-acetyl; Aib at 27; C-terminal amide) [SEQ ID NO: 20] ?
4.3

Return reported EC50 hGLP-1R; argument: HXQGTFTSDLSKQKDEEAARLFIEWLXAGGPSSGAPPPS (D-Ser at 2; Lys 14 side chain K(AEEAc-AEEAc- E-x70) = (2-{2-[2-(2-{2-[(4S)-4-Carboxy-4-octadecanoylamino-butyrylamino]-ethoxy}-ethoxy)-acetylamino]-ethoxy}-ethoxy)-acetyl; Aib at 27; C-terminal amide) [SEQ ID NO: 21]
1

Fill in the blank: the reported EC50 hGLP-1R of HXQGTFTSDLSKQKDEEAARLFIEWLXAXGPSSGAPPPS (D-Ser at 2; Lys 14 side chain K(γE-γE-x53) = (S)-4-Carboxy-4-((S)-4-carboxy-4-hexadecanoylamino-butyrylamino)-butyryl-; Aib at 27; D-Ala at 29; C-terminal amide) [SEQ ID NO: 12] is ____.
2.8

# input binder: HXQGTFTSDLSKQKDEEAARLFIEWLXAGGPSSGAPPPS (D-Ser at 2; Lys 14 side chain K(AEEAc-AEEAc-AEEAc-x70) = [2-(2-{2-[2-(2-{2-[2-(2-Octadecanoylamino-ethoxy)-ethoxy]-acetylamino}-ethoxy)-ethoxy]-acetylamino}-ethoxy)-ethoxy]-acetyl-; Aib at 27; C-terminal amide) [SEQ ID NO: 22] ; wanted: its EC50 hGLP-1R
1.8

Would you kindly share the measured EC50 hGLP-1R for HXQGTFTSDLSKQKDEEAARLFIEWLXKXGPSSGAPPPS (D-Ser at 2; Lys 14 side chain K(γE-γE-x53) = (S)-4-Carboxy-4-((S)-4-carboxy-4-hexadecanoylamino-butyrylamino)-butyryl-; Aib at 27; D-Ala at 29; C-terminal amide) [SEQ ID NO: 24] ?
2.4

# lookup: EC50 hGLP-1R of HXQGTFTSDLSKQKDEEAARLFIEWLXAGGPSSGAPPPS (D-Ser at 2; Lys 14 side chain K(γE-γE-x53) = (S)-4-Carboxy-4-((S)-4-carboxy-4-hexadecanoylamino-butyrylamino)-butyryl-; Aib at 27; C-terminal amide) [SEQ ID NO: 9]
1.8

Data request, read-out EC50 hGLP-1R, for H[dS]HGTFTSDLSKQK([γGlu-γGlu-Palmitoyl])DEEAARLFIEWL[Aib]K[dA]GPSSGAPPPS-NH2 [SEQ ID NO: 26]
2

# input binder: H[dS]HGTFTSDLSKQK([γGlu-γGlu-Palmitoyl])DEEAARLFIEWL[Aib]AGGPSSGAPPPS-NH2 [SEQ ID NO: 7] ; wanted: its EC50 hGLP-1R
1.5
